// data source = patent US20180334496A1

Give Kd for every item shown.
target: T1, serum purified human Complement Factor D (human, UniProt P00746 26-253); assay: SPR Biacore, 25 C
T1 construct: Serum purified protein flowed over the captured antibodies; also called CFD; human CFD
T1 sequence (P00746 26-253): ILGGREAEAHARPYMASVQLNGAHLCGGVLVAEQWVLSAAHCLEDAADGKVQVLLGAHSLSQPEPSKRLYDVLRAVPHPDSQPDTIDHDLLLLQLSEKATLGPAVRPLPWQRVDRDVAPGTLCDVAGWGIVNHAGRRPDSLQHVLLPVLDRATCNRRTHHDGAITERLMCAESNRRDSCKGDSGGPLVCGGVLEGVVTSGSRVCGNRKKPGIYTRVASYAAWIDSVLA
Write it as a number; the unit pM goes unstated.

Input line: Suppose we examine the binder 31S34I54I59D / 54R101V (antibody, V domains shown, KCD119 TAF variant) VH: EVQLVESGGGLVQPGGSLRLSCAASGYTFTSYYINWVRQAPGKGLEWIGDINPITGDTDYNADFKRRFTFSLDTSKSTAYLQMNSLRAEDTAVYYCTREGPSFAYWGQGTLVTVSS VL: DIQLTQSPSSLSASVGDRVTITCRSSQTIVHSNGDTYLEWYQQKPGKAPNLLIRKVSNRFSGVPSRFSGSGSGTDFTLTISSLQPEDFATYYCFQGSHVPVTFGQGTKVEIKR ; what Kd value has been reported?
Output line: 5.96

Input line: Thanks! And 31S54I59D / 54R101V (antibody, V domains shown, KCD119 TAF variant) VH: EVQLVESGGGLVQPGGSLRLSCAASGYTFTSYYMNWVRQAPGKGLEWIGDINPITGDTDYNADFKRRFTFSLDTSKSTAYLQMNSLRAEDTAVYYCTREGPSFAYWGQGTLVTVSS VL: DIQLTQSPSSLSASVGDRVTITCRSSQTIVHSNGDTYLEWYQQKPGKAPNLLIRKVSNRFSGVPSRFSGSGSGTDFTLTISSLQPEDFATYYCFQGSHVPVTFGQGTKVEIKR ?
Output line: 8.36

Input line: Thanks! And 54I59D / 54R101V (antibody, V domains shown, KCD119 TAF variant) VH: EVQLVESGGGLVQPGGSLRLSCAASGYTFTDYYMNWVRQAPGKGLEWIGDINPITGDTDYNADFKRRFTFSLDTSKSTAYLQMNSLRAEDTAVYYCTREGPSFAYWGQGTLVTVSS VL: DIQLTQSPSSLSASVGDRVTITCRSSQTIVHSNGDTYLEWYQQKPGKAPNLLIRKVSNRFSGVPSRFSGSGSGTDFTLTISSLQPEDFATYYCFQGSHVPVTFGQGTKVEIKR ?
Output line: 5.72

Input line: Thanks! And 34I54I59D / 54R101V (antibody, V domains shown, KCD119 TAF variant) VH: EVQLVESGGGLVQPGGSLRLSCAASGYTFTDYYINWVRQAPGKGLEWIGDINPITGDTDYNADFKRRFTFSLDTSKSTAYLQMNSLRAEDTAVYYCTREGPSFAYWGQGTLVTVSS VL: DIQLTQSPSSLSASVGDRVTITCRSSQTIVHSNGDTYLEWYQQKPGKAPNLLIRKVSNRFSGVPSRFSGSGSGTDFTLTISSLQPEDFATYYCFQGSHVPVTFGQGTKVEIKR ?
Output line: 5.62
